Experiment: PK study in SD rats (AB plasma concentration by LC-MS)
Format: in vivo, Sprague-Dawley rats
Details: Sprague-Dawley, rat, plasma; male SD rats, SC, 3.5 mg/kg; mean ± SEM
readoutKind: Cmax (ng/mL)

C=C1C(=O)O[C@@]23[C@H]1CC[C@@H](C)[C@@H]2CC[C@@]1(C)O[C@@H]31 [AB, Arteannuin B]; 236

* * *

Test: PK study in SD rats (AB plasma concentration by LC-MS)
Format: in vivo, Sprague-Dawley rats
Conditions: Sprague-Dawley, rat, plasma; male SD rats, IM, 3.5 mg/kg; mean ± SEM
readoutKind: Cmax (ng/mL)

C=C1C(=O)O[C@@]23[C@H]1CC[C@@H](C)[C@@H]2CC[C@@]1(C)O[C@@H]31 [AB, Arteannuin B]; 74.5

* * *

Assay: PK study in SD rats (AB plasma concentration by LC-MS)
Format: in vivo, Sprague-Dawley rats
Conditions: Sprague-Dawley, rat, plasma; male SD rats, IM, 3.5 mg/kg; mean ± SEM; read-out: t1/2 (converted)
readoutKind: half-life (h)

C=C1C(=O)O[C@@]23[C@H]1CC[C@@H](C)[C@@H]2CC[C@@]1(C)O[C@@H]31; 2.3

* * *

System: A549 cells
Assay: Anti-tumor cell proliferation activity (MTT method)
Type: cell-based, human
Conditions: Homo sapiens, A549, 96 h, 96 h (day four), mean ± SD, n = 3
readoutKind: IC50 (µM)

C=C1C(=O)O[C@@]23[C@H]1CC[C@@H](C)[C@@H]2CC[C@@]1(C)O[C@@H]31; 16

* * *

System: A549 cells
Assay: Anti-tumor cell proliferation activity (MTT method)
Format: cell-based, human
Conditions: Homo sapiens, A549, 72 h, 72 h, mean ± SD, n = 3
pIC50: −log10 of the molar value.
readoutKind: pIC50

C=C1C(=O)O[C@@]23[C@H]1CC[C@@H](C)[C@@H]2CC[C@@]1(C)O[C@@H]31 [AB, Arteannuin B]; 4.56
